Recorded values, source patent US9657037B2.

# Tested on: Mycobacterium tuberculosis H37Rv
# protocol-text: Antitubercular activity, growth inhibition by Alamar-Blue / resazurin microtiter assay
# Type: cell-based
# applied-conditions: H37RV
experimental-readout: MIC

// returns reported MIC for input CCOc1ccc(-c2c(CN3CC[Si](C)(C)CC3)cc(C)n2-c2ccc(OC)cc2)cc1
5 µg/mL

// returns reported MIC for input CSc1ccc(-c2cc(CN3CC[Si](C)(C)CC3)c(C)n2-c2ccc(C(C)C)cc2)cc1 [Compound 12a]
0.04 µg/mL

// returns reported MIC for input CCc1ccc(-c2cc(CN3CC[Si](C)(C)CC3)c(C)n2-c2ccc(OC)cc2)cc1
0.08 µg/mL

// returns reported MIC for input CSc1ccc(-c2c(CN3CC[Si](C)(C)CC3)cc(C)n2-c2ccc(F)cc2)cc1 [Compound 10b]
1.56 µg/mL
